Experimental Details: in vivo
Test Conditions: male, Sprague-Dawley, rat, iv, 15 mg/kg, MRT (mean residence time), male rats, blood, nirmatrelvir 15 mg/kg i.v. plus ritonavir 7 mg/kg i.v.
Assay Endpoint: MRT (h)
The reply should contain only the number, in h.

stdin: For the compound CC(C)(C)[C@H](NC(=O)C(F)(F)F)C(=O)N1C[C@H]2[C@@H]([C@H]1C(=O)N[C@H](C#N)C[C@@H]1CCNC1=O)C2(C)C , what MRT is on record?
stdout: 2.32

====

Experimental Details: in vivo
Test Conditions: female, Sprague-Dawley, rat, iv, 15 mg/kg, t1/2 (elimination half-life), nonpregnant female rats, blood, nirmatrelvir 15 mg/kg i.v. alone
Assay Endpoint: half-life (min)
Please reply with the bare figure in min and do not write the unit itself.

stdin: What value of measured half-life is listed for CC(C)(C)[C@H](NC(=O)C(F)(F)F)C(=O)N1C[C@H]2[C@@H]([C@H]1C(=O)N[C@H](C#N)C[C@@H]1CCNC1=O)C2(C)C [Nirmatrelvir] ?
stdout: 20
